Target: His-tagged Human KRAS^G12D (Homo sapiens (Human), UniProt P01116, G12D)
Sequence (P01116-2 other isoform, or with tags, fused parts or gaps G12D): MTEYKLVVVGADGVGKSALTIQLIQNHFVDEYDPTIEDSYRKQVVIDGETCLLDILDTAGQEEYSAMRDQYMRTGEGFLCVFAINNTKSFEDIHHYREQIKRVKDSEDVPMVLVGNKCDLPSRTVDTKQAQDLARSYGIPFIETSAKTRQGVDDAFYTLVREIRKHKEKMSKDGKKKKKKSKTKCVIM
Assay: HTRF KRAS G12D GTP binding assay
Conditions: displacement of GTP-Red tracer
pIC50: −log10 of the molar value.
quantity-name: pIC50

Some compounds with recorded pIC50:
{"compound": "CCc1c(F)ccc2cc(O)cc(-c3ncc4c(N5CCC[C@]6(CCO6)C5)nc(OCC5(CN6CCC(F)(F)CC6)CC5)nc4c3F)c12 [Compound 30a]", "assay-result": 7.38}
{"compound": "CCc1c(F)ccc2cc(O)cc(-c3ncc4c(N5C[C@H]6C[C@@H]5[C@@H](O)C6)nc(OC[C@@]56CCCN5C[C@H](F)C6)nc4c3F)c12", "assay-result": "< 6.00"}
{"compound": "CCc1c(F)ccc2cc(O)cc(-c3ncc4c(OC[C@@]56CCCN5C[C@H](F)C6)nc(OC[C@@]56CCCN5C[C@H](F)C6)nc4c3F)c12", "assay-result": "< 6.00"}
{"compound": "CCc1c(F)ccc2cc(O)cc(-c3ncc4c(N5CCC[C@H]5CN5CCCC5)nc(OC[C@@]56CCCN5C[C@H](F)C6)nc4c3F)c12", "assay-result": "< 5.00"}

With those in mind, consider the next compound.
Prompt: Name the recorded pIC50 for CCc1c(F)ccc2cc(O)cc(-c3ncc4c(N5CCC[C@@]5(C)CO)nc(OC[C@@]56CCCN5C[C@H](F)C6)nc4c3F)c12 .
Response: < 5.00
